Molecular target: PDGFRa (Homo sapiens, UniProt P16234)
Construct: purchased Promega
Sequence (P16234 24-1089): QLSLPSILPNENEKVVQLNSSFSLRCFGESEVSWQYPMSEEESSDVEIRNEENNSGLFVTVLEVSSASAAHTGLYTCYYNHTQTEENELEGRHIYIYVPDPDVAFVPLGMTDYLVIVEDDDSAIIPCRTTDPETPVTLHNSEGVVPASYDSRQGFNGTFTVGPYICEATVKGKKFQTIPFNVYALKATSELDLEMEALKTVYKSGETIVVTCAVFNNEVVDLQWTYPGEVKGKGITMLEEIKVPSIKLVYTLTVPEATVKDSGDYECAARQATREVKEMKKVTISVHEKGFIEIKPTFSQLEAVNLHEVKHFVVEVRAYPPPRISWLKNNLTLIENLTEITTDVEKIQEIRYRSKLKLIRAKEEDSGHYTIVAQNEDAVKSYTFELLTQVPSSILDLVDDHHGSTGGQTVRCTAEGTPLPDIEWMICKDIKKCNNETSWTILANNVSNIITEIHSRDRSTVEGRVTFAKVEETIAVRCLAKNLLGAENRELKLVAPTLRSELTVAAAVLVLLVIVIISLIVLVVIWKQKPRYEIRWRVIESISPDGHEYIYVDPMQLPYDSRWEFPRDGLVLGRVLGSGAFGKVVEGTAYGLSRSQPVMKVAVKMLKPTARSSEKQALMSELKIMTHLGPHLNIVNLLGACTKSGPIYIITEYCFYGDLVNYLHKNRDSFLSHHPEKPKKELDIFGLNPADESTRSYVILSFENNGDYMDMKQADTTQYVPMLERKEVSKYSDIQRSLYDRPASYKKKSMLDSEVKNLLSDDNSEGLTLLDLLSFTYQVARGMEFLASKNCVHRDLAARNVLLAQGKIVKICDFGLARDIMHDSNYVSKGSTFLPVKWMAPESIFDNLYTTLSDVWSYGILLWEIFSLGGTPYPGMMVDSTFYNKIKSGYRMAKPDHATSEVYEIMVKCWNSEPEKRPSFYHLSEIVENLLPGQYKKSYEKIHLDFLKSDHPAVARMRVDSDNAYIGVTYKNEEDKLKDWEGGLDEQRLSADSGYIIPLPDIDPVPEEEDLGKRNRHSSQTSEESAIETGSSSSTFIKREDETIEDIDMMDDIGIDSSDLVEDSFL
Test: ADP-Glo kinase inhibitory assay, PDGFRa
Assay type: biochemical
Details: read-out: % Inhibition at 10 nM, PDGFRa
Quantity Measured: inhibition at 0.01 µM

A selection of reference data follows.
>>> result("Cc1cn(-c2cc(NC(=O)c3ccc(CN4CCN(C(=O)c5cccnc5)CC4)cc3)cc(C(F)(F)F)c2)cn1 [Compound 28l]")
"0%"
>>> result("CNC(=O)c1cc(Oc2ccc(NC(=O)c3ccc(CNc4cc([N+](=O)[O-])ccc4C)cc3)cc2)ccn1")
"0%"
>>> result("Cc1cn(-c2cc(NC(=O)c3ccc(CN4CCN(C(=O)c5cccc(F)c5)CC4)cc3)cc(C(F)(F)F)c2)cn1 [Compound 28k]")
"0%"
>>> result("CCOC(=O)CCC(NC(=O)c1ccc(CNc2cc(-n3cnc(C)c3)cc(C(F)(F)F)c2)cc1)C(=O)OCC (centres unmarked)")
"0%"

Next molecule, please.
*Q* # return recorded inhibition at 0.01 µM for input "CNC(=O)c1cc(Oc2ccc(NCc3ccc(C(=O)Nc4cccc(C(F)(F)F)c4)cc3)cc2)ccn1"
*A* 77%
